system: Calmodulin-1 (Homo sapiens) (UniProt P0DP23)
experimental_details: small molecules binding calmodulin-1 with EGTA – biochemical, small-molecule microarray, Cy5-labelled CALM1, profiling panel (AID 1111);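 further: labelled calmodulin applied in Tris saline Tween buffer holding calcium plus EGTA and DTT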
test_parameters: Cy5-CALM1 binding fluorescence, higher = more signal
outcome_measure: composite z-score

State the recorded composite z-score for every item in the following list.
1. COCCOC(=O)N1C(=O)[C@@]2(c3cc(C#Cc4ccc(OC)cc4)ccc31)[C@H](c1ccc(OCCO)cc1)N1[C@H](c3ccccc3)[C@H](c3ccccc3)OC(=O)[C@H]1[C@@H]2C(N)=O
2. COC(=O)[C@@]1(Cc2ccc(OC)cc2)[C@H]2c3cc(C(=O)N4CCCC4)n(CCF)c3C[C@H]2CN1C(=O)c1ccccc1
3. C=C(COC)/C(=C/C[C@@H](OC(=O)c1ccncc1)c1cccc(OCCO)c1)c1cc(C(=O)OC)ccc1OC

Return:
1. 2.09
2. 2.03
3. -0.134

====

experimental_details: JC-1 mitochondrial potential readout, lung cancer cells – cell-based, A549, JC-1 fluorescence, basal, 24 h, 100 nL, profiling panel (AID 1138);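 further: A549 lung adenocarcinoma cells under basal conditions with no added stimulus; test concentration not given here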
test_parameters: higher = more signal
outcome_measure: z-score
Answers are plain numbers.

Enquiry: For the compound COCCCNC(=O)[C@]1(CCS(=O)(=O)c2ccccc2)N=C(c2ccc(OCCCO)cc2)O[C@@H]1c1ccccc1 , report z-score.
Return: 1.3

State the recorded z-score for every item in the following list.
1. COc1ccc(C(=O)Nc2ccc3c(c2)[C@]2(O[C@@H](CCO)[C@H]([Si](C)(C)c4ccc(OC)cc4)[C@H]2C)C(=O)N3Cc2ccccc2)cc1
2. Cc1cc(C)c(C(O)C2C=CC3C(=O)N(c4ccccc4)C(=O)C3N2Nc2ccc([N+](=O)[O-])cc2)c(C)c1 (centres undefined)
3. C=C(/C(=C/C[C@@H](OC(=O)c1ccncc1)c1cccc(OCCO)c1)c1cc(C(=O)OC)ccc1OC)C(C)C

Return:
0.168
-0.712
4.89

====

experimental_details: JC-1 mitochondrial signal, unstimulated MM1S myeloma – cell-based, JC-1 fluorescence, 24 h, 100 nL compound, profiling panel (AID 1170); further: test concentration not given here
test_parameters: MM1S mitochondrial potential, higher = more signal
Assignment: determine reported z-score for the given compounds.

Enquiry: For the compound COCCOC(=O)N1C(=O)[C@@]2(c3cc(C#CCC(C(=O)OC)C(=O)OC)ccc31)[C@H](c1ccc(OCCO)cc1)N1[C@H](c3ccccc3)[C@H](c3ccccc3)OC(=O)[C@H]1[C@@H]2C(N)=O , report z-score.
Return: -0.0535

State the recorded z-score for every item in the following list.
1. COCCCNC(=O)[C@@]1(Cc2ccccc2)COC(c2ccc(OCCCO)cc2)=N1
2. NC(=O)NCC#Cc1ccc2c(c1)[C@]1(C(=O)N2)[C@H](c2ccc(OCCO)cc2)N2[C@H](c3ccccc3)[C@H](c3ccccc3)OC(=O)[C@H]2[C@@H]1C(=O)N1CCCCCCC1
3. COc1ccccc1CN1C(=O)c2ccccc2[C@@H](C(=O)NCC(C)C)[C@@H]1c1ccc(CO)cc1
4. COC(=O)[C@@]1(Cc2ccc(F)cc2)[C@@H]2[C@@H](CC(=O)[C@H]2CC(=O)C(=O)N2CCCC2)CN1C(=O)c1ccccc1
5. COC(=O)[C@]1(Cc2ccccc2CN=[N+]=[N-])N=C(c2ccc(OCCCO)cc2)O[C@@H]1c1ccccc1
6. C[N+](C)(C)CCCC[C@@H]1NC(=O)[C@@H]2C[C@H](C(=O)O)[C@H](c3cccc(OCCO)c3)N2C1=O
7. COc1ccc(C(=O)Nc2ccc(CN3C(=O)[C@]4(O[C@H](CCn5cc([C@H](O)c6ccccc6)nn5)[C@@H]([Si](C)(C)c5ccc(OC)cc5)[C@@H]4C)c4ccccc43)cc2)cc1
8. CCCC=C(CCC)[C@@H](NC(=O)Cc1ccccc1)c1ccc(C(=O)OC)cc1

Return:
1: -0.693; 2: -1.02; 3: 0.544; 4: -1.25; 5: -2.7; 6: 0.17; 7: -2.36; 8: -2.09

State the recorded z-score for every item in the following list.
1. COCCOC(=O)N1C(=O)[C@@]2(c3ccccc31)[C@H](c1ccccc1OCCO)N1[C@H](c3ccccc3)[C@H](c3ccccc3)OC(=O)[C@H]1[C@@H]2C(=O)N1CCc2cc(OC)c(OC)cc2C1
2. C[C@H]1NC(=O)C([C@@H](C)OCc2ccccc2)NC(=O)[C@@]23C(=O)N[C@@H](Cc4ccccc4)C2[C@H](C)[C@@]2(C)O[C@H]2C3/C=C/CC/C=C/CNC1=O (stereo partly drawn)
3. COc1ccc([Si](C)(C)[C@H]2[C@H](CCn3cc(CCO)nn3)O[C@@]3(C(=O)N(Cc4cccc(N5C(=O)c6cccc7cccc5c67)c4)c4ccccc43)[C@@H]2C)cc1
4. COC(=O)[C@@]1(Cc2ccccc2)[C@H]2c3cc(C(=O)N4CCCC4)n(CCO)c3C[C@H]2CN1C(=O)c1ccccc1

Return:
1: -0.582; 2: 1.84; 3: -2.03; 4: -0.77

The measured values listed here are drawn from PubChem BioAssay.
